Can you tell me pIC50 for the items I'm about to list?
- Test system: 134 cancer cell lines
- ASSAY PROCEDURE: Cell viability assay (ATPlite, 72 hours), IC50 on cancer cell line panel
- TEST SETTINGS: read-out: IC50 in cell proliferation assay, cell line RKO (BRAF p.V600E)
# reply with the number alone; pIC50 is -log10 of concentration in mol/L

query: Find pIC50 (134 cancer cell lines) for the entry CC(C)(C)c1nc(-c2cccc(NS(=O)(=O)c3c(F)cccc3F)c2F)c(-c2ccnc(N)n2)s1 [dabrafenib]
result: 7.96

query: What would you report for CC(=O)Nc1cccc(-n2c(=O)n(C3CC3)c(=O)c3c(Nc4ccc(I)cc4F)n(C)c(=O)c(C)c32)c1 [trametinib] ?
result: 8.10

query: What would you report for Cn1cnc2c(F)c(Nc3ccc(Br)cc3F)c(C(=O)NOCCO)cc21 [binimetinib] ?
result: 7.54

query: What would you report for Cn1cnc2c(F)c(Nc3ccc(Br)cc3Cl)c(C(=O)NOCCO)cc21 [selumetinib] ?
result: 6.44

query: What would you report for C[C@H](Nc1ncnc2nc[nH]c12)c1cc2cccc(Cl)c2c(=O)n1-c1ccccc1 [duvelisib] ?
result: 5.05

query: What would you report for COC(=O)N[C@@H](C)CNc1nccc(-c2cn(C(C)C)nc2-c2cc(Cl)cc(NS(C)(=O)=O)c2F)n1 [encorafenib] ?
result: 6.61

query: What would you report for Cc1cc(Nc2ncnc3ccc(NC4=NC(C)(C)CO4)cc23)ccc1Oc1ccn2ncnc2c1 [tucatinib] ?
result: 4.88

query: What would you report for CCc1nc(C(N)=O)c(Nc2ccc(N3CCC(N4CCN(C)CC4)CC3)c(OC)c2)nc1NC1CCOCC1 [gilteritinib] ?
result: 5.87
